- Assayed System: T1, recombinant human IGFBP-3 (human, UniProt P17936 28-291)
- T1 construct: mature; Secreted recombinant protein
- T1 sequence (P17936 28-291): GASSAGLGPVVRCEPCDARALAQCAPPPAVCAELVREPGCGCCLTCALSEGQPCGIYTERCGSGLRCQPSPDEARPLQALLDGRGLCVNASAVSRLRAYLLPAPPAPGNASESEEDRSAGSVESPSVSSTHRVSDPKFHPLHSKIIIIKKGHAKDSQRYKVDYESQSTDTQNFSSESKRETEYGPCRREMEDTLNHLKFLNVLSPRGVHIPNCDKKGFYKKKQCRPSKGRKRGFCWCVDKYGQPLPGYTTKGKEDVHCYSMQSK
- Assay Summary: competitive phage ELISA
Assay Endpoint: pIC50
Quick note: pIC50 means taking -log10 of the concentration in moles per liter.

Some solved cases for reference:
Binder: IGF-I R37A displayed on phage (ligand, not shown: large carriers, On phage; G1S-A70V template) SPETLCGAELVDALQFVCGDRGFYFNKPTGYGSSSRAAPQTGIVDECCFRSCDLRRLEMYCAPLKPAKSV
pIC50: 9.12
--
Binder: IGF-I S51A displayed on phage (ligand, On phage; G1S-A70V template; not shown: Display partner: M13 gene III protein fragment (residues 249-406, mature count) and the junction to it) SPETLCGAELVDALQFVCGDRGFYFNKPTGYGSSSRRAPQTGIVDECCFRACDLRRLEMYCAPLKPAKSV
pIC50: 9.19
--
Binder: IGF-I Q40A displayed on phage (ligand, not shown: large carriers, On phage; G1S-A70V template) SPETLCGAELVDALQFVCGDRGFYFNKPTGYGSSSRRAPATGIVDECCFRSCDLRRLEMYCAPLKPAKSV
pIC50: 9.25

[in] Report pIC50 for IGF-I E9A displayed on phage (ligand, On phage; G1S-A70V template; not shown: M13 gene III fragment (residues 249-406), the display carrier, and its junction) SPETLCGAALVDALQFVCGDRGFYFNKPTGYGSSSRRAPQTGIVDECCFRSCDLRRLEMYCAPLKPAKSV please.
[out] 8.88

[in] Report pIC50 for IGF-I E58A displayed on phage (ligand, On phage; G1S-A70V template; not shown: M13 gene III protein fragment (residues 249-406), the phage display carrier, and its junction to IGF-I) SPETLCGAELVDALQFVCGDRGFYFNKPTGYGSSSRRAPQTGIVDECCFRSCDLRRLAMYCAPLKPAKSV please.
[out] 8.99

[in] Report pIC50 for IGF-I F23A displayed on phage (ligand, On phage; G1S-A70V template; not shown: Display carrier: M13 gene III protein fragment (residues 249-406) and the junction to it) SPETLCGAELVDALQFVCGDRGAYFNKPTGYGSSSRRAPQTGIVDECCFRSCDLRRLEMYCAPLKPAKSV please.
[out] 8.66

[in] Report pIC50 for IGF-I F25A displayed on phage (ligand, On phage; G1S-A70V template; not shown: Display carrier: M13 gene III protein fragment (residues 249-406) and the junction to it) SPETLCGAELVDALQFVCGDRGFYANKPTGYGSSSRRAPQTGIVDECCFRSCDLRRLEMYCAPLKPAKSV please.
[out] 8.43

[in] Report pIC50 for IGF-I Y60A displayed on phage (ligand, On phage; G1S-A70V template; not shown: M13 gene III protein fragment (residues 249-406), the phage display carrier, and its junction to IGF-I) SPETLCGAELVDALQFVCGDRGFYFNKPTGYGSSSRRAPQTGIVDECCFRSCDLRRLEMACAPLKPAKSV please.
[out] 9.28

[in] Report pIC50 for IGF-I R21A displayed on phage (ligand, On phage; G1S-A70V template; not shown: Display carrier: M13 gene III protein fragment (residues 249-406) and the junction to it) SPETLCGAELVDALQFVCGDAGFYFNKPTGYGSSSRRAPQTGIVDECCFRSCDLRRLEMYCAPLKPAKSV please.
[out] 9.24

[in] Report pIC50 for IGF-I L64A displayed on phage (ligand, On phage; G1S-A70V template; not shown: M13 gene III protein fragment (residues 249-406), the phage display carrier, and its junction to IGF-I) SPETLCGAELVDALQFVCGDRGFYFNKPTGYGSSSRRAPQTGIVDECCFRSCDLRRLEMYCAPAKPAKSV please.
[out] 9.03
